System: LXRb homodimer (NR concentration 270 nM)
test_summary: PBM binding z-score (relative to random genomic background probes); higher = stronger binding; sequences stand for … in GC…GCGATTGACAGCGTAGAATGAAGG
metric: PBM binding z-score

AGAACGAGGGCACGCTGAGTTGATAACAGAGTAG    -0.662
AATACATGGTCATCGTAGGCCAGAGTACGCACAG    -0.0432
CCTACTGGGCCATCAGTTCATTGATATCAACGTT    -0.567
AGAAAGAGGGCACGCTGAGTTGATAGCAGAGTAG    -0.685
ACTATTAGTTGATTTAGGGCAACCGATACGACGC    1.19
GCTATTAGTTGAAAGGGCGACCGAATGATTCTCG    -0.239

Query: PBM binding z-score; subject: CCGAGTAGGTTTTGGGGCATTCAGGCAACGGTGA
-0.134

Form field: reported PBM binding z-score of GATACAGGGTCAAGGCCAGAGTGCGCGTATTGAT
-0.343

// PBM binding z-score lookup, key: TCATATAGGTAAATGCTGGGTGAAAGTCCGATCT
0.924

Returns the measured PBM binding z-score for the input sequence. Input: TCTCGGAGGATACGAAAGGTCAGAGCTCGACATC
-0.148

Return reported PBM binding z-score; argument: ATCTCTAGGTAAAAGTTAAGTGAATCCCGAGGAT
0.69

Looking for the measured PBM binding z-score of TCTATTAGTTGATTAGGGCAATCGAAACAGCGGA , can you help?
0.542
